// data source = patent US7803930B2

System: lipoprotein(a)
Assay: Lipoprotein(a) particle secretion from primary human hepatocytes, ELISA
Format: cell-based
Conditions: 50 nM, 24 hours
Procedure: Primary human hepatocytes (InVitro Technologies, Baltimore, Md.), cultured and transfected as described herein, were treated for 24 hours with 50 or 150 nM of ISIS 271009 (SEQ ID NO: 319), 281625 (SEQ ID NO: 224), 301012 (SEQ ID NO: 247) or 301027 (SEQ ID NO: 262). […] Following 24 hours of oligonucleotide treatment, the amount of lipoprotein(a) in the culture medium collected from the treated cells was measured using a commercially available ELISA kit (ALerCHEK Inc., Portland, Me.). […]
In the oligonucleotide strings, read from the 5' end, every base follows the letter of its sugar. An asterisk marks phosphorothioate; unmarked linkages are phosphodiester. Other units and linkages are bracketed, terminal groups are in braces. A string of capitals states the bases alone. e = 2'-O-(2-methoxyethyl) (MOE); [5mC] = 5-methylcytosine; d = 2'-deoxy (DNA)
experimental_readout: % Change in lipoprotein(a) secretion (%)
Give the number; % is assumed, so skip it.

INSERT INTO measurements (substance, test_value) VALUES
  ('271009 (antisense eG*e[5mC]*e[5mC]*eT*e[5mC]*dA*dG*dT*d[5mC]*dT*dG*d[5mC]*dT*dT*d[5mC]*eG*e[5mC]*eG*e[5mC]*e[5mC]) [compound 271009]', '−25'),
  ('301027 (eG*e[5mC]*eT*e[5mC]*eA*d[5mC]*dT*dG*dT*dA*dT*dG*dG*dT*dT*eT*eT*eA*eT*e[5mC]; antisense) [compound 301027]', '−33'),
  ('281625 (antisense eA*eG*eG*eT*eT*dA*d[5mC]*d[5mC]*dA*dG*d[5mC]*d[5mC]*dA*d[5mC]*dA*eT*eG*e[5mC]*eA*eG) [compound 281625]', '−26');

Here 301012 (eG*e[5mC]*e[5mC]*eT*e[5mC]*dA*dG*dT*d[5mC]*dT*dG*d[5mC]*dT*dT*d[5mC]*eG*e[5mC]*eA*e[5mC]*e[5mC]) [compound 301012] was tested on lipoprotein(a), and its % Change in lipoprotein(a) secretion came to −27

---

Test system: human apolipoprotein B mRNA
Experiment: Inhibition of human apolipoprotein B mRNA levels in HepG2 cells, quantitative real-time PCR
Assay type: cell-based
Conditions: HepG2 cells; human apolipoprotein B mRNA; oligonucleotides targeting genomic sequence SEQ ID NO 334; averages from two experiments
Method: The human hepatoblastoma cell line HepG2 was obtained from the American Type Culture Collection (Manassas, Va.). […] Quantitation of apolipoprotein B mRNA levels was determined by real-time quantitative PCR using the ABI PRISM™ 7700 Sequence Detection System (PE-Applied Biosystems, Foster City, Calif.) according to manufacturer's instructions. […]
In the oligonucleotide strings, read from the 5' end, every base follows the letter of its sugar. An asterisk marks phosphorothioate; unmarked linkages are phosphodiester. Other units and linkages are bracketed, terminal groups are in braces. A string of capitals states the bases alone. e = 2'-O-(2-methoxyethyl) (MOE); [5mC] = 5-methylcytosine; d = 2'-deoxy (DNA)
experimental_readout: % INHIB (%)
Provide only the numeric value, understood in %.

Sample records with % INHIB:
INSERT INTO results (substance, subject_of_test, unit_string, test_value) VALUES
  ('301216 (antisense e[5mC]*eT*eG*eG*eA*dG*dA*dG*dG*dA*d[5mC]*dT*dA*dA*dA*e[5mC]*eA*eG*eA*eG) [compound 301216]', 'human apolipoprotein B mRNA', '%', 49),
  ('301197 (antisense e[5mC]*eA*eT*eA*eG*d[5mC]*dT*d[5mC]*dA*d[5mC]*d[5mC]*dT*dT*dG*d[5mC]*eA*e[5mC]*eA*eT*eT) [compound 301197]', 'human apolipoprotein B mRNA', '%', 28);

Here is another substance to look at.
Log: human apolipoprotein B mRNA, substance 301105 (antisense eG*eG*e[5mC]*e[5mC]*eA*dT*dG*dT*dA*dA*dA*dT*dT*dG*d[5mC]*eT*e[5mC]*eA*eT*e[5mC]) [compound 301105] , % INHIB = 7
